- TARGET OF ASSAY: TLR7/NFKb HEK cells (Homo sapiens, UniProt Q9NYK1)
- Sequence (Q9NYK1 27-1049): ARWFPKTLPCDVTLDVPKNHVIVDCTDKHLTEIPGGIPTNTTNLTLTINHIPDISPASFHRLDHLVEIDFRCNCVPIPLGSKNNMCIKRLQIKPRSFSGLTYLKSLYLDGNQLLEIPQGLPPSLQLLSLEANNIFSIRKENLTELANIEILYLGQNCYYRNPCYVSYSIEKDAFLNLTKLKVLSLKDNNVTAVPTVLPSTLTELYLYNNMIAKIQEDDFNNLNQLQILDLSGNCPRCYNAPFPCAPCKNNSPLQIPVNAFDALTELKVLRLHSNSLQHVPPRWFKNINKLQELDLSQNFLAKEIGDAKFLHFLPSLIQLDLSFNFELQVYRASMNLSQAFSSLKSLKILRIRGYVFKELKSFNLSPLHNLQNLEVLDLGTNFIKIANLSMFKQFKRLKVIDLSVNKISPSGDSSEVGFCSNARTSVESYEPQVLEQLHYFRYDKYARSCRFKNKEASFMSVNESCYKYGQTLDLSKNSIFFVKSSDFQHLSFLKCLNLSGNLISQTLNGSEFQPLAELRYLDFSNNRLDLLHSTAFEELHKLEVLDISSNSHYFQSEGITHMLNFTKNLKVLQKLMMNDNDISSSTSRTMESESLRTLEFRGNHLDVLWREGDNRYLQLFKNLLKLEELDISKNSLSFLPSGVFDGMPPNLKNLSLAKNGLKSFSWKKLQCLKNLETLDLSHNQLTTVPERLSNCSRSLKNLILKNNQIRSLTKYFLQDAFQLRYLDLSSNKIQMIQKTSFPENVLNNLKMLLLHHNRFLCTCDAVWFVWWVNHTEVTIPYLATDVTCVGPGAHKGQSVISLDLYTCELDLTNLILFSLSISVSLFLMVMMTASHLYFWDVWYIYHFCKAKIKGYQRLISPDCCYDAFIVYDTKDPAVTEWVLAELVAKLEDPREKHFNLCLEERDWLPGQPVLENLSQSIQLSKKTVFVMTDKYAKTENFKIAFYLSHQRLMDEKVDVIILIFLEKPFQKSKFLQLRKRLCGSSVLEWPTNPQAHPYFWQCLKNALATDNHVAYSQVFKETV
- PROCEDURE DETAILS: HEK Cell Assay (TLR7/NFKb reporter, Steady-Glo luciferase readout)
- PROTOCOL CONDITIONS: 30 min compound preincubation, then R*48 agonist for 5 hours, read-out: Potency
- Method: Example 142: HEK Cell Assay Into 384 CulturePlates (Corning 3707) was placed 5000 c/w of TLR7/NFKb HEK cells in 30 uL DMEM without Phenil red (gibco #31053) and 10% i.a. FCS and 2 mM L-ZGLutamin. The cells were incubated for 24 h at 37° C., 10% carbon dioxide and 90% relative humidity. […] The assay plate was allowed to sit for 30 min at room temperature and then the plate was read on EnVision.
Where a name gives a salt, the structure may show the parent alone.
REPORTED ENDPOINT: IC50

Find IC50 for CC(C)(N)CC(=O)NC1CN(c2ccc(C#N)c3nccnc23)CC(F)(F)C1 (centres unmarked) [Compound 505, hydrochloride] on TLR7/NFKb HEK cells (Homo sapiens, UniProt Q9NYK1) and write it down.
1000 to 10000 nM

Identify measured IC50 obtained with TLR7/NFKb HEK cells (Homo sapiens, UniProt Q9NYK1) for CCN1CCC(NC(=O)C2CC(C)CN(c3ccc(C#N)c4nccnc34)C2)CC1 (centres unmarked) .
< 1000 nM

Name the value of IC50 reported for CN(C)CC(=O)NCC1CCN(c2ccnc3nccnc23)CC1 when tested on TLR7/NFKb HEK cells (Homo sapiens, UniProt Q9NYK1).
1000 to 10000 nM

Look up and report measured IC50 (TLR7/NFKb HEK cells (Homo sapiens, UniProt Q9NYK1)) for the following compound: C[C@H]1C[C@@H](N)CN(c2ccc(C#N)c3nsnc23)C1 [Compound 552, hydrochloride]
< 1000 nM

Give the observed IC50 of C[C@H]1C[C@@H](NC(=O)COC(C)(C)C)CN(c2ccc(C#N)c3nccnc23)C1 for TLR7/NFKb HEK cells (Homo sapiens, UniProt Q9NYK1).
< 1000 nM
